Assign CC50 at 48 h to each entry below.
assay: Cytotoxicity in dog MDCK cells assessed as reduction in cell viability incubated for 48 hrs by crystal violet staining based assay; format: toxicity, Canis lupus familiaris

| molecule | CC50 at 48 h |
| --- | --- |
| COc1ccc([C@H](C)N(Cc2ccc(C(C)(C)C)cc2)Cc2cc3cc(OC)ccc3[nH]c2=O)cc1 | 4.1 µM |
| COCOc1ccc(CN(Cc2ccc(C(C)(C)C)cc2)Cc2cc3cc(C)ccc3[nH]c2=O)cc1 | 6.4 µM |
| Cc1ccc2[nH]c(=O)c(CN(Cc3ccc(N(C)C)cc3)Cc3ccc(C(C)(C)C)cc3)cc2c1 | > 5 µM |
| Cc1ccc2[nH]c(=O)c(CN(Cc3ccc(C(N)=O)cc3)Cc3ccc(C(C)(C)C)cc3)cc2c1 | > 5 µM |
| COc1ccc(C(C)N(Cc2ccc(C(C)(C)C)cc2)Cc2cc3cc(C4CC4)ccc3[nH]c2=O)cc1Cl (stereo not drawn) | > 10 µM |
| Cc1ccc2cc(CN(Cc3ccc(F)cc3)Cc3ccc(C(F)(F)F)cc3)c(=O)[nH]c2c1 | > 33 µM |
| Cc1ccc2[nH]c(=O)c(CN(Cc3ccccc3)Cc3ccc(C(C)(C)C)cc3)cc2c1 | > 5 µM |

// below: CC50 at 48 h requested for another molecule
Would you kindly share the measured CC50 at 48 h for CC(c1ccc(N(C)C)c(Cl)c1)N(Cc1ccc(C(C)(C)C)cc1)Cc1cc2cc(C3CC3)ccc2[nH]c1=O (stereo not drawn) ?
> 10 µM

---

Assign CC50 at 48 h to each entry below.
assay: Cytotoxicity in dog MDCK cells assessed as reduction in cell viability incubated for 48 hrs by crystal violet staining based assay; type: toxicity, Canis lupus familiaris

| molecule | measurement_label | observed_value |
| --- | --- | --- |
| CCc1ccc2[nH]c(=O)c(CN(Cc3ccc(C(C)(C)C)cc3)C(C)c3ccc(OC)cc3)cc2c1 (stereo unspecified) | CC50 at 48 h | > 5 µM |
| Cc1ccc2cc(CN(Cc3ccc(Cl)cc3)Cc3ccc(Cl)cc3)c(=O)[nH]c2c1 | CC50 at 48 h | > 33 µM |
| COc1ccc([C@H](C)N(Cc2ccc(C(C)(C)C)cc2)Cc2cc3ccccc3[nH]c2=O)cc1 | CC50 at 48 h | 1.8 µM |
| Cc1ccc2cc(C(C)N(Cc3ccc(F)cc3)Cc3ccc(C(C)C)cc3)c(=O)[nH]c2c1 (stereo unspecified) | CC50 at 48 h | > 33 µM |
| Cc1ccc2cc(CN(Cc3ccc(F)cc3)Cc3ccc(C(C)(C)C)cc3)c(=O)[nH]c2c1 | CC50 at 48 h | > 33 µM |

Return reported CC50 at 48 h values for all items listed beneath this line.
1. Cc1ccc2[nH]c(=O)c(CN(Cc3ccc(F)cc3)Cc3ccc(C(C)(C)C)cc3)cc2c1
2. Cc1ccc2[nH]c(=O)c(CN(Cc3ccc(SC(F)F)cc3)Cc3ccc(C(C)(C)C)cc3)cc2c1
3. CN(C)c1ccc(CN(Cc2ccc(C(C)(C)C)cc2)Cc2cc3cc(Cl)ccc3[nH]c2=O)cc1
4. CCc1ccc2[nH]c(=O)c(CN(Cc3ccc(OC(F)F)cc3)Cc3ccc(C(C)(C)C)cc3)cc2c1
5. Cc1ccc2[nH]c(=O)c(CN(Cc3ccc(F)cc3)Cc3cccc4ccccc34)cc2c1

> 27 µM
> 5 µM
> 10 µM
> 5 µM
> 5 µM

Return reported CC50 at 48 h values for all items listed beneath this line.
1. Cc1ccc2cc(CN(Cc3ccc(F)cc3)Cc3ccc(C(C)C)cc3)c(=O)[nH]c2c1
2. COc1ccc([C@H](C)N(Cc2ccc(C(C)(C)C)cc2)Cc2cc3cc(C4CC4)ccc3[nH]c2=O)cc1
3. CCOc1ccc(CN(Cc2ccc(C(C)(C)C)cc2)Cc2cc3cc(C)ccc3[nH]c2=O)cc1
4. COc1ccc2[nH]c(=O)c(CN(Cc3ccc(C(C)(C)C)cc3)Cc3ccc(C(F)(F)F)c(Cl)c3)cc2c1

["> 33 µM", "> 10 µM", "> 10 µM", "> 10 µM"]

Return reported CC50 at 48 h values for all items listed beneath this line.
1. CCc1ccc2[nH]c(=O)c(CN(Cc3ccc(C(C)(C)C)cc3)C(C)c3ccc(OC)c(Cl)c3)cc2c1 (stereo unspecified)
2. CCc1ccc2[nH]c(=O)c(CN(Cc3ccc(C(C)(C)C)cc3)[C@H](CO)c3ccccc3)cc2c1
3. Cc1ccc2[nH]c(=O)c(CN(Cc3ccc(OCC(=O)OC(C)(C)C)cc3)Cc3ccc(C(C)(C)C)cc3)cc2c1
4. COc1ccc(C(C)N(Cc2ccc(C(C)(C)C)cc2)Cc2cc3cc(Br)ccc3[nH]c2=O)cc1Cl (stereo unspecified)

> 10 µM
> 10 µM
> 10 µM
> 10 µM

Return reported CC50 at 48 h values for all items listed beneath this line.
1. CSc1ccc(CN(Cc2ccc(C(C)(C)C)cc2)Cc2cc3cc(C)ccc3[nH]c2=O)cc1
2. CC(C)c1ccc2[nH]c(=O)c(CN(Cc3ccc(C(C)(C)C)cc3)C(C)c3ccc(N(C)C)c(Cl)c3)cc2c1 (stereo unspecified)

1. > 5 µM
2. > 10 µM

Would you kindly share the measured CC50 at 48 h for `Cc1ccc2cc(CN(Cc3ccc(C(C)(C)C)cc3)CC3CCCCC3)c(=O)[nH]c2c1` ?
> 10 µM

---

Assign CC50 at 48 h to each entry below.
assay: Cytotoxicity in dog MDCK cells assessed as reduction in cell viability incubated for 48 hrs by crystal violet staining based assay; format: toxicity, Canis lupus familiaris

| molecule | observed_value |
| --- | --- |
| Cc1ccc2cc(CN(Cc3ccc(C(C)(C)C)cc3)C3CCCC3)c(=O)[nH]c2c1 | > 10 µM |
| CCc1ccc2[nH]c(=O)c(CN(Cc3ccc(C(C)(C)C)cc3)[C@H](C)c3ccc(F)cc3)cc2c1 | > 5 µM |

Return reported CC50 at 48 h values for all items listed beneath this line.
1. CCc1ccc2[nH]c(=O)c(CN(Cc3ccc(C(C)(C)C)cc3)C(C)c3ccc(OC(F)F)cc3)cc2c1 (centres undefined)
2. CCc1ccc2[nH]c(=O)c(CN(Cc3cccc(F)c3)Cc3ccc4ccccc4c3)cc2c1

1: > 5 µM; 2: > 5 µM

Reference source: ChEMBL document CHEMBL5042495
